B1: F1*; the commonest letter at each place (parent)
chain: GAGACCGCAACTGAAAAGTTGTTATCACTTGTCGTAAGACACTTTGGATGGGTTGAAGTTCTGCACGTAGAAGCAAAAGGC

# Variants of: B1
# Protocol summary: fraction ligated after 30 min (ligated reads / total reads); higher = more ligase activity
# Experimental context: with F1*sub RNA substrate (template-directed ligation), 42 °C
# fraction ligated annotations
// return just the number, without any unit appended

See these solved cases before continuing.
A27G A41G : 0.791
C28T G31A : 0.81
T30C A36T : 0.816
T32C G38C : 0.777
G34T A39T : 0.804

Turning now to a further record.
-- ask Need fraction ligated of T35G A57T , thanks.
-- reply 0.804
